system: Fibrinogen (Alexa647-labelled); assay: fibrinogen binders on compound microarrays, profiling panel, artefact control for SMM control-protein annotation, biochemical, small-molecule microarray, 635/667 nm fluorescence (AID 1131); settings: fibrinogen-A647 binding fluorescence, higher = more signal;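 note: z-score merges 667 nm fluorescence with per-spot signal-to-noise over triplicate slides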

{"compound": "CC(C)C(O)C1C=CC2C(=O)N(c3ccccc3)C(=O)C2N1Nc1ccc([N+](=O)[O-])cc1 (centres undefined)", "subject of test": "Fibrinogen (Alexa647-labelled)", "composite z-score": 0.954}
{"compound": "CCCC[C@@H]1C[C@H]1[C@@H](NC(=O)c1ccco1)c1ccccc1C(F)(F)F", "subject of test": "Fibrinogen (Alexa647-labelled)", "composite z-score": 0.349}
{"compound": "COC(=O)[C@]1(CCC(=O)OC(C)(C)C)N=C(c2ccc(OCCCO)cc2)O[C@@H]1c1ccccc1CN=[N+]=[N-]", "subject of test": "Fibrinogen (Alexa647-labelled)", "composite z-score": 0.666}
{"compound": "COc1ccc(-c2cc3c(c(-c4ccc(Oc5ccccc5)cc4)n2)[Si](C(C)C)(C(C)C)OC3)cn1", "subject of test": "Fibrinogen (Alexa647-labelled)", "composite z-score": -0.424}
{"compound": "CN1C(=O)C2C=CC(C(O)c3ccc([N+](=O)[O-])cc3)N(N3CCCCC3)C2C1=O (centres undefined)", "subject of test": "Fibrinogen (Alexa647-labelled)", "composite z-score": 0.938}
{"compound": "COc1ccc(/C=C/C=O)cc1", "subject of test": "Fibrinogen (Alexa647-labelled)", "composite z-score": -1.76}
{"compound": "O=C1c2ccccc2[C@](Cc2ccccc2I)(C(=O)NCCN2CCOCC2)[C@H](c2ccc(CO)cc2)N1C1CCCCC1", "subject of test": "Fibrinogen (Alexa647-labelled)", "composite z-score": 0.927}
{"compound": "[N-]=[N+]=Nc1ccccc1[C@@H]1OC(c2ccc(OCCCO)cc2)=N[C@]1(Cc1ccccc1)C(=O)N1CCOCC1", "subject of test": "Fibrinogen (Alexa647-labelled)", "composite z-score": 0.862}
{"compound": "COCCOC(=O)N1C(=O)[C@@]2(c3cc(C#CCC(C(=O)OC)C(=O)OC)ccc31)[C@H](c1ccccc1OCCO)N1[C@H](c3ccccc3)[C@H](c3ccccc3)OC(=O)[C@H]1[C@@H]2C(=O)NC[C@H](O)c1ccccc1", "subject of test": "Fibrinogen (Alexa647-labelled)", "composite z-score": 0.749}
{"compound": "CCS[C@H]1[C@@H](C(=O)O)[C@H](c2ccc(C)cc2)N(S(=O)(=O)c2ccc(C)cc2)[C@@H]1CC", "subject of test": "Fibrinogen (Alexa647-labelled)", "composite z-score": 0.715}
{"compound": "COC(=O)C(CC#Cc1ccc2c(c1)[C@]1(C(=O)N2)[C@H](c2ccc(OCCO)cc2)N2[C@H](c3ccccc3)[C@H](c3ccccc3)OC(=O)[C@H]2[C@@H]1C(=O)Nc1nc2ccccc2s1)C(=O)OC", "subject of test": "Fibrinogen (Alexa647-labelled)", "composite z-score": 0.998}
{"compound": "COC(=O)C(CC#Cc1ccc2c(c1)[C@]1(C(=O)N2)[C@H](c2ccc(OCCO)cc2)N2[C@H](c3ccccc3)[C@H](c3ccccc3)OC(=O)[C@H]2[C@@H]1C(=O)N1CCc2cc(OC)c(OC)cc2C1)C(=O)OC", "subject of test": "Fibrinogen (Alexa647-labelled)", "composite z-score": 1}
{"compound": "COC(=O)C(CC#Cc1ccc2c(c1)[C@]1(C(=O)N2)[C@H](C(=O)Nc2nc3ccccc3s2)[C@H]2C(=O)O[C@H](c3ccccc3)[C@H](c3ccccc3)N2[C@@H]1c1ccccc1OCCO)C(=O)OC", "subject of test": "Fibrinogen (Alexa647-labelled)", "composite z-score": 0.964}
{"compound": "COc1ccc(CCNC(=O)[C@@]2(C)c3ccccc3C(=O)N(C(C)C)[C@H]2c2ccc(CO)cc2)cc1", "subject of test": "Fibrinogen (Alexa647-labelled)", "composite z-score": 0.0931}
